All figures here come from patent US8268990B2.

Reported pEC50 by item:
Biological target: Recombinant human TLR7 (Homo sapiens, UniProt Q9NYK1)
Construct: TLR7 in vector pUNO, blasticidin selection
Sequence (Q9NYK1 27-1049): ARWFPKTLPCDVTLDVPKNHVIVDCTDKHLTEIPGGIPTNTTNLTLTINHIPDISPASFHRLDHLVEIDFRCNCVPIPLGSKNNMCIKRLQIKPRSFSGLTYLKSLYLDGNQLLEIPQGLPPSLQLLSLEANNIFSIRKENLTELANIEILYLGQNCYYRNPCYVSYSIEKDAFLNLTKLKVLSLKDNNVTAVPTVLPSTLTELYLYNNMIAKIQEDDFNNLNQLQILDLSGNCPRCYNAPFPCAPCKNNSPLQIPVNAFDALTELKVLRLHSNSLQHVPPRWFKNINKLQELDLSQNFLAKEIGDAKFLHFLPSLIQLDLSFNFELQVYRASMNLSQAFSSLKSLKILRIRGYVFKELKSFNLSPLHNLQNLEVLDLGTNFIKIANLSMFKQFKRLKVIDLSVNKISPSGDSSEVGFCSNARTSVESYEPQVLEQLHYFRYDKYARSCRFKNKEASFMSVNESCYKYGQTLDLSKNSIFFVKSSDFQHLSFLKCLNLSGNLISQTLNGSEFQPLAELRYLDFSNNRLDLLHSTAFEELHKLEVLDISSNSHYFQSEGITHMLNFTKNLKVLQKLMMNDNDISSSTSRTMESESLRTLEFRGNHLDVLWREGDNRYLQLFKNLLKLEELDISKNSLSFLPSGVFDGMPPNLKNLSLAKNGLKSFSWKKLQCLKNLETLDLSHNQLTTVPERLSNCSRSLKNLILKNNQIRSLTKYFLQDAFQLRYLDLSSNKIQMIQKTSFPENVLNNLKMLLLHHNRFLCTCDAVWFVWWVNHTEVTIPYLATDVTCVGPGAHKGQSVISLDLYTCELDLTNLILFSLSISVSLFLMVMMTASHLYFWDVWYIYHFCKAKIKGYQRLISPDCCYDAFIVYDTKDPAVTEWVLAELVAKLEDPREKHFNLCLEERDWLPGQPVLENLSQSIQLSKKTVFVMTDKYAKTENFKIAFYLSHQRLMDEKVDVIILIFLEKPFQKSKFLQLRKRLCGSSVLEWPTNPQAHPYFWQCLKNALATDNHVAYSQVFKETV
Experiment: Human TLR7 Assay (SEAP reporter);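 also: SEAP driven by an NFkB-responsive composite promoter, pEC50 read at half of each compound's own maximal SEAP induction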
Settings: HEK293 cell line stably expressing human TLR7 and pNiFty2-SEAP reporter; SEAP induction after overnight incubation at 37° C., 0.1% (v/v) DMSO
FYI, pEC50 means -log10 of a concentration in mol per litre.

Sample records with pEC50:
> print(dat)
                                   compound  reported
1  CCCCCNc1nc(N)nc(C)c1Cc1ccc(CC(=O)OCCCN2CCN(C)CC2)cc1      6.60
2  CCC[C@@H](CO)Nc1nc(N)nc(C)c1Cc1ccc(CC(=O)OC)cc1F      6.30
3  CCCCNc1nc(N)nc(C)c1Cc1ccc(CC(=O)OCCCCN2CCC(N(C)C)CC2)cc1OC      7.60
4  CCC[C@@H](CCO)Nc1nc(N)nc(C)c1Cc1ccc(CC(=O)OCCCCN2CCN(C)CC2)cc1F      7.60
5  CCCCCNc1nc(N)nc(C)c1CCCN(Cc1ccc(CC(=O)OC)cc1)C(=O)C1CCN(C)CC1      6.10
6  CCCCNc1nc(N)nc(C)c1Cc1ccc(CC(=O)OCCCCO)cc1OC      7.70

Task item: # return recorded pEC50 for entry CCCCCNc1nc(N)nc(C)c1CCCN(Cc1ccc(CC(=O)OC)cc1)C(=O)CN1CCCC(c2ccc(S(C)(=O)=O)cc2)C1 (stereo not drawn)
Reply: 6.10
